Measured pKi on UniProt P28222 follows.
Sequence (P28222 whole entry): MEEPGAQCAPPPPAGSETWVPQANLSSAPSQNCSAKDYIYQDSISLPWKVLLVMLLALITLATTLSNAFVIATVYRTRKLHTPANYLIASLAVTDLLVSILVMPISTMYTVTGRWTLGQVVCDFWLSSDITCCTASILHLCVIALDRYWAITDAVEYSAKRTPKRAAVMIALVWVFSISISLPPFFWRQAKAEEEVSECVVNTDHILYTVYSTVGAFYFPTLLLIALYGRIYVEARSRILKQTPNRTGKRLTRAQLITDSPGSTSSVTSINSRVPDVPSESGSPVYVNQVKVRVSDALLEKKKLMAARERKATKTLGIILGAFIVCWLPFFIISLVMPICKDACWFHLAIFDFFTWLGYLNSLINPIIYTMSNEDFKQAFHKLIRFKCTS
Scale for pKi: -log10 of concentration given in mol/L; no unit attached.

CN(C)CCc1c[nH]c2ccc(CS(=O)(=O)N(C)Cc3ccc(CN(C)S(=O)(=O)Cc4ccc5[nH]cc(CCN(C)C)c5c4)cc3)cc12: 9.19

Now let's try a different one.
Sample `CN(C)CCc1c[nH]c2ccc(C[C@H]3COC(=O)N3)cc12` ; pKi observed: 8.38
